experimental_system: CDK4/CycD3 (Homo sapiens (Human))
run_description: CDK4/CycD3 kinase Mobility Shift Assay
Format: biochemical
Protocol: 1. CDK2, CDK4 and CDK6 Kinase Assays: CDK2/CycA2 and CDK6/cycD3 were assayed under buffer conditions in the presence of 50 mM HEPES (pH 7.5), 10 mM MgCl2, 0.0015% Brij-35, and 2 mM dithiothreitol, CDK4/CycD3 with buffer condition of 20 mM HEPES (pH 7.5), 10 mM MgCl2, 0.01% Triton X-100, and 2 mM dithiothreitol. […] Collect conversion on Caliper EZ Reader. IC50 values were calculated by fitting the dose-response curves with Xlfit excel add-in version 4.3.1.
value_type: IC50

chemical_string=CC(=O)c1c(C)c2cnc(Nc3ccc4c(n3)CCNC4)nc2n(C2CCCC2)c1=O experimental_system="CDK4/CycD3 (Homo sapiens (Human))" result="< 10 nM"

----------
experimental_system: HDAC-6 (Homo sapiens (Human))
Sequence (Q9UBN7 whole entry): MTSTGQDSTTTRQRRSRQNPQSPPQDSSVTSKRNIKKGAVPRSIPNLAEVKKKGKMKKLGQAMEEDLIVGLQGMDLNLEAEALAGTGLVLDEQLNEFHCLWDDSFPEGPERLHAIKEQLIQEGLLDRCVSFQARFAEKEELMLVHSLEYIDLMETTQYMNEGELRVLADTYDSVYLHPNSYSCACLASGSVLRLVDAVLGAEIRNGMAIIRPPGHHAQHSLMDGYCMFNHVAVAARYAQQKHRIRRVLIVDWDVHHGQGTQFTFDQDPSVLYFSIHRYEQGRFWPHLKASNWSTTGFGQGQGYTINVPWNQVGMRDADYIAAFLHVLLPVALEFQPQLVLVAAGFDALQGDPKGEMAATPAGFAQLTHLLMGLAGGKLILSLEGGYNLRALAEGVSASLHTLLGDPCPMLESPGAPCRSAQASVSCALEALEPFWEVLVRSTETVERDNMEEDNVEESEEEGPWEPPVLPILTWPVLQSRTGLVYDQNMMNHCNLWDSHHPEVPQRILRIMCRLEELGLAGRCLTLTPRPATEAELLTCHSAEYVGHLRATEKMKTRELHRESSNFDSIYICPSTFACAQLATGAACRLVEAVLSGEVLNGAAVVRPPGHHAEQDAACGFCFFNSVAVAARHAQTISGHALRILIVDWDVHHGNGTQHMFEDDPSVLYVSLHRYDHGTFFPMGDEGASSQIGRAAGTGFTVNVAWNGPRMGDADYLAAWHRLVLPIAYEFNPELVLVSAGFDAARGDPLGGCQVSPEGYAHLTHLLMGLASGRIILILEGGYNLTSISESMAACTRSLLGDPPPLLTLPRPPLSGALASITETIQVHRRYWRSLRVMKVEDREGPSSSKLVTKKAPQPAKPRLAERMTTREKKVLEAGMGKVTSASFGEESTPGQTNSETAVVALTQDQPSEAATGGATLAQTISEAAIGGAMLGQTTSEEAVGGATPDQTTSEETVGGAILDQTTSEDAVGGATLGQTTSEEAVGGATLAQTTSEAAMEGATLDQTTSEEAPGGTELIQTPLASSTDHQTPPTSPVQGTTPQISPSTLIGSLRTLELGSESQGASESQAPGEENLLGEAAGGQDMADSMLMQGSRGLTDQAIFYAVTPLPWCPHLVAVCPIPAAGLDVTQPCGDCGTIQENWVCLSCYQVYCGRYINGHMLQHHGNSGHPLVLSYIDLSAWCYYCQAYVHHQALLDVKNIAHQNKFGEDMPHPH
run_description: HDAC-6 fluorogenic deacetylase assay
test_parameters: recombinant, full-length protein, Ac-peptide-AMC substrate; read-out: HDAC6 (IC50)
Overview of recorded IC50 for various compounds
value_type: IC50

chemical_string=CC(=O)c1c(C)c2cnc(Nc3ccc(N4CCN(Cc5ccc(C(=O)NO)cc5)CC4)cn3)nc2n(C2CCCC2)c1=O result="< 0.01 µM"
chemical_string=CC(=O)c1c(C)c2cnc(Nc3ccc(C(=O)NCCCCCCC(=O)NO)cn3)nc2n(C2CCCC2)c1=O result="< 0.01 µM"
chemical_string=CC(=O)c1c(C)c2cnc(Nc3ccc(N4CCN(CCCCCCC(=O)NO)CC4)cn3)nc2n(C2CCCC2)c1=O result="< 0.05 µM"
chemical_string=CC(=O)c1c(C)c2cnc(Nc3ccc(N4CCN(CCCCCCCC(=O)NO)CC4)cn3)nc2n(C2CCCC2)c1=O result="< 0.05 µM"
chemical_string=CC(=O)c1c(C)c2cnc(Nc3ccc(C(=O)NO)cn3)nc2n(C2CCCC2)c1=O result="< 0.05 µM"
chemical_string=CC(=O)c1c(C)c2cnc(Nc3ccc(N4CCN(C(=O)CCCCCCC(=O)NO)CC4)cn3)nc2n(C2CCCC2)c1=O result="< 0.01 µM"

----------
experimental_system: CDK4/CycD3 (Homo sapiens (Human), UniProt P11802)
Sequence (P11802 whole entry, species assumed, one chain of several): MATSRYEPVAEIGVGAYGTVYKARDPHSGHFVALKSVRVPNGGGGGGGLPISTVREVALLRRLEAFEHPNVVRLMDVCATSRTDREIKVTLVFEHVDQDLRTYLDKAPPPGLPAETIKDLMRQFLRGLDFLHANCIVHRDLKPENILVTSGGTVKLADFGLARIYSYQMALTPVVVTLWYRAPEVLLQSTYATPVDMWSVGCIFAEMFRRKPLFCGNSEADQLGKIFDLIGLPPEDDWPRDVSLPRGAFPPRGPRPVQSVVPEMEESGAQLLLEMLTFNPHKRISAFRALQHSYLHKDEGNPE
run_description: CDK4/CycD3 kinase Mobility Shift Assay
Type: biochemical
test_parameters: CDK4/CycD3 10 nM, ATP Km 221 μM, 180 min, 28° C.
Overview of recorded IC50 for various molecules
value_type: IC50

molecule="CC(=O)c1c(C)c2cnc(Nc3ccc(C(=O)NO)cn3)nc2n(C2CCCC2)c1=O [Compound 17]" experimental_system="CDK4/CycD3 (Homo sapiens (Human), UniProt P11802)" value_type=IC50 result="< 50 nM"
molecule="CC(=O)c1c(C)c2cnc(Nc3ccc(N4CCN(CCCCCCCC(=O)NO)CC4)cn3)nc2n(C2CCCC2)c1=O [Compound 15]" experimental_system="CDK4/CycD3 (Homo sapiens (Human), UniProt P11802)" value_type=IC50 result="< 10 nM"
molecule="CC(=O)c1c(C)c2cnc(Nc3ccc(N4CCCC5(CCNCC5)C4)cn3)nc2n(C2CCCC2)c1=O [Compound 6]" experimental_system="CDK4/CycD3 (Homo sapiens (Human), UniProt P11802)" value_type=IC50 result="< 10 nM"
molecule="CC(=O)c1c(C)c2cnc(Nc3ccc(N4CC5CNCC(C4)C5(F)F)cn3)nc2n(C2CCCC2)c1=O (single isomer, unassigned) [Compound 4-1]" experimental_system="CDK4/CycD3 (Homo sapiens (Human), UniProt P11802)" value_type=IC50 result="< 25 nM"
molecule="CC(=O)c1c(C)c2cnc(Nc3ccc(N4CCN(C(=O)CCCC(=O)NO)CC4)cn3)nc2n(C2CCCC2)c1=O [Compound 13]" experimental_system="CDK4/CycD3 (Homo sapiens (Human), UniProt P11802)" value_type=IC50 result="< 25 nM"
molecule="CC(=O)c1c(C)c2cnc(Nc3ccc(N4CCN(Cc5ccc(C(=O)NO)cc5)CC4)cn3)nc2n(C2CCCC2)c1=O [Compound 16]" experimental_system="CDK4/CycD3 (Homo sapiens (Human), UniProt P11802)" value_type=IC50 result="< 10 nM"
molecule="CC(=O)c1c(C)c2cnc(Nc3ccc(N4CCN(C(=O)CCCCCCC(=O)NO)CC4)cn3)nc2n(C2CCCC2)c1=O [Compound 12]" experimental_system="CDK4/CycD3 (Homo sapiens (Human), UniProt P11802)" value_type=IC50 result="< 10 nM"
molecule="CC(=O)c1c(C)c2cnc(Nc3ccc(N4CC5CNCC(C5)C4)cn3)nc2n(C2CCCC2)c1=O [Compound 1]" experimental_system="CDK4/CycD3 (Homo sapiens (Human), UniProt P11802)" value_type=IC50 result="< 10 nM"
molecule="CC(=O)c1c(C)c2cnc(Nc3ccc(N4CC5CNCC(C4)C5(F)F)cn3)nc2n(C2CCCC2)c1=O [Compound 4-2]" experimental_system="CDK4/CycD3 (Homo sapiens (Human), UniProt P11802)" value_type=IC50 result="< 50 nM"
molecule="CC(=O)c1c(C)c2cnc(Nc3ccc(N4CCC5(CC4)CNC5)cn3)nc2n(C2CCCC2)c1=O [Compound 3]" experimental_system="CDK4/CycD3 (Homo sapiens (Human), UniProt P11802)" value_type=IC50 result="< 10 nM"
molecule="CC(=O)c1c(C)c2cnc(Nc3ccc(N4CC5CNCC(C4)O5)cn3)nc2n(C2CCCC2)c1=O [Compound 2]" experimental_system="CDK4/CycD3 (Homo sapiens (Human), UniProt P11802)" value_type=IC50 result="< 25 nM"
molecule="CC(=O)c1c(C)c2cnc(Nc3ccc(N4CCN(CCCCCCC(=O)NO)CC4)cn3)nc2n(C2CCCC2)c1=O [Compound 14]" experimental_system="CDK4/CycD3 (Homo sapiens (Human), UniProt P11802)" value_type=IC50 result="< 10 nM"
molecule="CC(=O)c1c(C)c2cnc(Nc3ccc(C(=O)NCCCCCCC(=O)NO)cn3)nc2n(C2CCCC2)c1=O [Compound 18]" experimental_system="CDK4/CycD3 (Homo sapiens (Human), UniProt P11802)" value_type=IC50 result="< 50 nM"

----------
experimental_system: CDK6/cycD3 (Homo sapiens (Human))
Sequence (Q00534 whole entry, species assumed): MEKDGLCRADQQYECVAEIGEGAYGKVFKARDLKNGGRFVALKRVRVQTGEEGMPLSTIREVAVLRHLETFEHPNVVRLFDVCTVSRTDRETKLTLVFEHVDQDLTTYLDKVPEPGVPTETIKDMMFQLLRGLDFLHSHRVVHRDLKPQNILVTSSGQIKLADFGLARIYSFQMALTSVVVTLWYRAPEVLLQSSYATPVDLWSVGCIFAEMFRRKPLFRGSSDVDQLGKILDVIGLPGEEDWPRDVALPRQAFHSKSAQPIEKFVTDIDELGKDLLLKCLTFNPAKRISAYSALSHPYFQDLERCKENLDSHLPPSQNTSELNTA
Sequence (P30281 whole entry partner, species assumed): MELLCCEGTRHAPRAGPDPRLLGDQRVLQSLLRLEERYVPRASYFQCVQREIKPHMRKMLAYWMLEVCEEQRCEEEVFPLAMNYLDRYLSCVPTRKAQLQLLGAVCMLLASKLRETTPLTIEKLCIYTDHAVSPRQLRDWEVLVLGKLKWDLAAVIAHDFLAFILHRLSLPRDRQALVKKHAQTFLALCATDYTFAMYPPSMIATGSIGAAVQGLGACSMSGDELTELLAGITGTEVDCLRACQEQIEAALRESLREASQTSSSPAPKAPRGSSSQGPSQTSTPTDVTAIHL
run_description: CDK6/cycD3 kinase Mobility Shift Assay
test_parameters: CDK6/cycD3 15 nM, ATP Km 800 μM, 60 min, 28° C.
pIC50: −log10 of the molar value.
Overview of recorded pIC50 for various compounds
value_type: pIC50

compound=CC(=O)c1c(C)c2cnc(Nc3ccc(N4CCC5(CC4)CNC5)cn3)nc2n(C2CCCC2)c1=O value_type=pIC50 result="> 7.60"
compound=CC(=O)c1c(C)c2cnc(Nc3ccc(N4CCN(CCCCCCC(=O)NO)CC4)cn3)nc2n(C2CCCC2)c1=O value_type=pIC50 result="> 8.00"
compound="CC(=O)c1c(C)c2cnc(Nc3ccc(N4CC5CNCC(C4)C5(F)F)cn3)nc2n(C2CCCC2)c1=O [Compound 4-2]" value_type=pIC50 result="> 7.00"
compound="CC(=O)c1c(C)c2cnc(Nc3ccc(N4CC5CNCC(C4)C5(F)F)cn3)nc2n(C2CCCC2)c1=O (single isomer, unassigned) [Compound 4-1]" value_type=pIC50 result="> 7.00"
compound=CC(=O)c1c(C)c2cnc(Nc3ccc4c(n3)CCNC4)nc2n(C2CCCC2)c1=O value_type=pIC50 result="> 7.00"
compound=CC(=O)c1c(C)c2cnc(Nc3ccc(N4CC5CNCC(C5)C4)cn3)nc2n(C2CCCC2)c1=O value_type=pIC50 result="> 7.60"
compound=CC(=O)c1c(C)c2cnc(Nc3ccc(N4CCN(Cc5ccc(C(=O)NO)cc5)CC4)cn3)nc2n(C2CCCC2)c1=O value_type=pIC50 result="> 7.30"
compound=CC(=O)c1c(C)c2cnc(Nc3ccc(N4CCCC5(CCNCC5)C4)cn3)nc2n(C2CCCC2)c1=O value_type=pIC50 result="> 7.60"
compound=CC(=O)c1c(C)c2cnc(Nc3ccc(N4CCN(C(=O)CCCC(=O)NO)CC4)cn3)nc2n(C2CCCC2)c1=O value_type=pIC50 result="> 7.30"
compound=CC(=O)c1c(C)c2cnc(Nc3ccc(N4CCN(C(=O)CCCCCCC(=O)NO)CC4)cn3)nc2n(C2CCCC2)c1=O value_type=pIC50 result="> 7.60"
compound=CC(=O)c1c(C)c2cnc(Nc3ccc(N4CCN(CCCCCCCC(=O)NO)CC4)cn3)nc2n(C2CCCC2)c1=O value_type=pIC50 result="> 7.60"
compound=CC(=O)c1c(C)c2cnc(Nc3ccc(N4CC5CNCC(C4)O5)cn3)nc2n(C2CCCC2)c1=O value_type=pIC50 result="> 7.00"
compound=CC(=O)c1c(C)c2cnc(Nc3ccc(C(=O)NO)cn3)nc2n(C2CCCC2)c1=O value_type=pIC50 result="> 6.30"
compound=CC(=O)c1c(C)c2cnc(Nc3ccc(C(=O)NCCCCCCC(=O)NO)cn3)nc2n(C2CCCC2)c1=O value_type=pIC50 result="> 6.00"
